Origin of measurements: PubChem BioAssay AID463204

system: S. cerevisiae Mot1-301 ts growth rescue, BacTiter-Glo ATP luminescence; experiment: restored Mot1-301 yeast growth at 38.5C – whole organism, S. cerevisiae, Mot1-301 ts mutant, luminescence, dose retest, SUMOylation pathway inhibitor project, confirmation (AID 463204);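 note: growth at restrictive 38.5 degrees C of Mot1-301 OY566 strain; actives raise luminescence by restoring growth of the ts mutant at high temperature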
Activity calls are given as the source filed them.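 Rule for the calls: active = AC50 no more than ten times the top concentration tested, that is within one log above it; inconclusive = flat curve fit with activity between 30% and 70%, or invalid poor fit; inactive = AC50 beyond ten times the top tested dose.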
Please answer using one outcome listed in active, inactive

How was CCCCn1c(SCC(=O)Nc2cc(C)on2)nnc1-c1ccco1 classified in this test?
inactive

How was CSc1ccccc1-n1nnnc1SCC(=O)Nc1ccccc1C classified in this test?
inactive

How was O=C(Nc1ccc([N+](=O)[O-])cn1)c1ccc2c(c1)OCO2 classified in this test?
inactive

How was Oc1ccc(Br)cc1/C=N/n1c(COc2ccccc2)n[nH]c1=S classified in this test?
active

How was CCCCOC(=O)/C(=C/C=C/c1ccccc1)NC(=O)c1ccccc1 classified in this test?
inactive

How was COc1ccc(NC(=O)COc2cc(C)cc(C)c2)cc1S(=O)(=O)N1CCCCC1 classified in this test?
inactive

How was O=c1c2ccccc2nc(SCc2nnc(-c3ccccc3)o2)n1-c1ccc(F)cc1F classified in this test?
inactive

How was CCOC(=O)c1cnc2oc3ccccc3n2c1=O classified in this test?
inactive

How was CCN1CCN(CC(=O)Nc2cccc(C)c2C)C(=O)C1=O classified in this test?
inactive

How was CC(=O)Nc1cccc(OCC(O)Cn2c(C)nc3ccccc32)c1 (stereo not drawn) classified in this test?
inactive

How was Cc1[nH]c(C)c(S(=O)(=O)NCC(C)c2ccccc2)c1C(=O)N1CCCCC1 (stereo not drawn) classified in this test?
inactive

How was CN(C)c1ccc(/C=C/c2cccc[n+]2[O-])cc1 classified in this test?
inactive

How was Cc1ccc2nc(N/N=C/c3ccccc3F)nc(-c3ccccc3)c2c1 classified in this test?
inactive

How was CC(C)(C)C(=O)NC1CCN(CC(=O)Nc2ccc3c(c2)OCO3)CC1 classified in this test?
inactive

How was Cc1ccc(S(=O)(=O)N2CCN(C(=O)CSc3nc(N)cc(=O)[nH]3)CC2)c(C)c1 classified in this test?
inactive

How was COCCN(C(=O)CSc1nnc(-c2ccc(C)cc2)n1N)c1c(N)n(Cc2ccccc2)c(=O)[nH]c1=O classified in this test?
inactive

How was CN(CCOc1ccc(-c2ccn(S(=O)(=O)c3cccc4ccccc34)n2)cc1)c1ccccn1 classified in this test?
inactive

How was Cc1ccc(/C(N)=N/OC(=O)/C=C/c2ccccc2)cc1 classified in this test?
inactive

How was COc1ccccc1CNc1ncnc2c1nnn2Cc1ccccc1 classified in this test?
active

How was Oc1cccc(/C=N/N2CCN(c3ccccn3)CC2)c1 classified in this test?
inactive

How was COC(=O)C1C2C=CC3(CN(CCc4ccccc4)C(=O)C13)O2 (stereo not drawn) classified in this test?
inactive

How was O=C(O)c1cc(S(=O)(=O)Nc2ccc(OCc3ccccc3)cc2)ccc1Br classified in this test?
inactive

How was COc1cc(COc2ccc3c(C)c(CC(=O)O)c(=O)oc3c2C)cc(OC)c1OC classified in this test?
inactive

How was O=C(CCSc1ccccc1)NNC(=O)c1ccccc1F classified in this test?
inactive

How was Cc1ccc(Nc2cc(C)nc3c(C)ccc([N+](=O)[O-])c23)cc1 classified in this test?
active

How was Cc1ccc(NC(=O)C(CC(C)C)NC(=O)C2CCC(C)CC2)nc1 (stereo not drawn) classified in this test?
inactive

How was COC(=O)c1cc2occc2n1Cc1nc(-c2ccccc2C)oc1C classified in this test?
inactive

How was COc1ccccc1CNC(=O)[C@H](C)NC(=O)C1CCN(C(=O)[C@@H](N)CC(C)C)CC1 classified in this test?
inactive

How was COc1ccccc1NC(=S)N(Cc1ccco1)Cc1cc2cccc(C)c2[nH]c1=O classified in this test?
inactive

How was O=C(Nc1ccc2nc(-c3ccc4nc[nH]c4c3)[nH]c2c1)c1cccs1 classified in this test?
inactive

How was CCCOC(=O)c1c(NC(=O)/C=C/c2cnn(C)c2C)sc(C(=O)OC)c1C classified in this test?
inactive

How was CCOc1ccc(CCNC(=O)COC(=O)c2cccc(OC)c2O)cc1OCC classified in this test?
inactive

How was CCCOC(=O)c1c(-c2ccc(OC)cc2)oc2ccc(-c3ccc(OC)nc3)cc12 classified in this test?
inactive

How was Cn1c(Cn2nnc3ccccc32)nnc1SCC(=O)c1ccc(F)cc1 classified in this test?
inactive

How was CCCCOc1ccc(C(=O)Nc2ccc(CN3CCOCC3)cc2)cc1 classified in this test?
inactive

How was Cc1c(Cl)cccc1NC(=S)NCCCN(C)C classified in this test?
inactive

How was CCC(=O)N(Cc1ccc2c(c1)OCO2)Cc1cc2cc(OC)ccc2[nH]c1=O classified in this test?
inactive

How was NS(=O)(=O)c1ccc(CCNC(=O)CN2CCN(c3ccc(F)cc3)CC2)cc1 classified in this test?
inactive

How was CCOC(=O)C1CCN(C(=O)COc2ccc(S(=O)(=O)N3CCOCC3)cc2C)CC1 classified in this test?
inactive

How was CC1CCCC(C)N1CCCNC(=O)c1csc2c1CCCCC2 (stereo not drawn) classified in this test?
inactive

How was O=C(O)CN(c1ccccn1)S(=O)(=O)c1ccc(Cl)cc1 classified in this test?
inactive

How was Cn1c(=O)c2c(nc(N/N=C/c3ccc(OC(=O)c4ccco4)cc3)n2Cc2ccccc2Cl)n(C)c1=O classified in this test?
inactive

How was COC(=O)c1ccccc1SC(CC(=O)c1ccccc1)c1ccc(F)cc1 (stereo not drawn) classified in this test?
inactive
